CONDITION_DESCRIPTION: pH 2.3
Reported Log P values follow for various compounds
Just the number, please, no unit attached.

Previously resolved entries follow.
CCOC(=O)C(C#N)=C(Nc1ccccc1SC)c1ccc(C)nc1Cl = 3.57
CCOC(=O)C(C#N)=C(NC(C)C(C)C)c1cccnc1-c1ccc(OC(F)(F)F)cc1 (stereo not drawn) = 4.39

Now turn to the next compound.
q: State its Log P for this compound: CCOC(=O)C(C#N)=C(NC(C)c1nccs1)c1cccnc1F (stereo not drawn)
a: 2.47

* * *

Reported Log P values follow for various compounds
CONDITION_DESCRIPTION: pH 2.7
Marks after values point to notes of the source that are not given here.

Previously resolved entries follow.
CCOC(=O)C(C#N)=C(Nc1ccc(OC)cc1)c1ccsc1Br [Compound 525] = 3.6^[a]
CCOC(=O)C(C#N)=C(Nc1ccccc1SC(F)(F)C(F)Cl)c1cc(C)oc1C (centres unmarked) [Compound 418] = 4.25^[a]
CCOC(=O)C(C#N)=C(NC(C#N)c1ccc(Cl)cc1Cl)c1cn(C)nc1C(F)F (centres unmarked) [Compound 1231] = 3.55^[a]
CCOC(=O)C(C#N)=C(NC(C)C1(C)CC1)c1cccnc1Cl (centres unmarked) [Compound 1533] = 3.46^[a]
CCOC(=O)C(C#N)=C(NC(C)c1nccs1)c1cnn(C)c1Cl (centres unmarked) [Compound 1501] = 2.42^[a]
CCOC(=O)C(C#N)=C(NC(C)c1ccccn1)c1sccc1Cl (racemic) [Compound 160] = 3.05^[a]
COC(=O)C(C#N)=C(NC1CSC1)c1cccnc1Cl [Compound 122] = 2.08^[a]
COCCNC(=O)C(C#N)=C(NC(C)C(C)C)c1cccnc1Cl (centres unmarked) [Compound 1492] = 2.73^[a]
CCOC(=O)C(C#N)=C(NC(C)C(C)C)c1ccnc(C)c1Cl (centres unmarked) [Compound 1211] = 3.51^[a]
CNN(C)C(=O)C(C#N)=C(NC(C)C(C)C)c1cccnc1Cl (centres unmarked) [Compound 1628] = 1.3^[a]

q: State its Log P for this compound: CCOC(=O)C(C#N)=C(NC(C)COc1ccc(C)cc1)c1cccnc1Cl (centres unmarked) [Compound 1165]
a: 3.94^[a]

q: State its Log P for this compound: CCOC(=O)C(C#N)=C(NC(C)c1cnn(C)c1)c1cccnc1Cl (centres unmarked) [Compound 321]
a: 2.2^[a]

q: State its Log P for this compound: CCOC(=O)C(C#N)=C(NC(C)C1CC1)c1ccncc1F (racemic) [Compound 904]
a: 2.8^[a]

q: State its Log P for this compound: CCOC(=O)C(C#N)=C(NC(C)COC)c1sccc1C(F)(F)F (racemic) [Compound 655]
a: 3.31^[a]

* * *

CONDITION_DESCRIPTION: pH 7.5
Param label: returns 1 when Log P < 3, returns -1 otherwise, including exact equality.

Field: example entries. Status: answers known.
CCOC(=O)C(C#N)=C(NC(C)Cn1cncn1)c1cccnc1Cl (stereo not shown) = 1
CCOC(=O)C(C#N)=C(Nc1ccccc1SC)c1cccnc1Cl = -1
CCOC(=O)C(C#N)=C(NC(C)c1nccs1)c1cccnc1Br (racemic) = 1

API: the following record is the query input.
q: # check: Log P < 3 for CCOC(=O)C(C#N)=C(NC(C)C(F)(F)F)c1cccnc1Cl (mixture of isomers)
a: 1

Source listed as patent US8476197B2.
